- targetUnderTest: T1, Human membrane IL-6R on cells (human, UniProt P08887 20-468)
- T1 sequence (looked up): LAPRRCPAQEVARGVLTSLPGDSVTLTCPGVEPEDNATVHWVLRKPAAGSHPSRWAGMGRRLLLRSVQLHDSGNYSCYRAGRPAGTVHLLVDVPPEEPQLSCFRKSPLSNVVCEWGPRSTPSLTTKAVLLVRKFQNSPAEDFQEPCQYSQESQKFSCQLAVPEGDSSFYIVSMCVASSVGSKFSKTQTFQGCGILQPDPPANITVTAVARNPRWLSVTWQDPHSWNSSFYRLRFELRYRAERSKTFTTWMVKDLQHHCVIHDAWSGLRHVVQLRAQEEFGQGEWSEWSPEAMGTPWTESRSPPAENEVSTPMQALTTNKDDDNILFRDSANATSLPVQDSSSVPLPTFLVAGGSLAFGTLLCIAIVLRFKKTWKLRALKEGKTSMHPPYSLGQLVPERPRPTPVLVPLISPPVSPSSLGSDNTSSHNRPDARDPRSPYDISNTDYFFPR
- experimentSummary: cell-based or functional assay
measuredQuantity: IC50 (nM), XG-1 cell proliferation
Report only the number, with the unit nM understood.

Task: Would you mind telling me what IC50 (nM), XG-1 cell proliferation value was observed for IL6R05 (VHH, also called PMP32E10; not shown: C-terminal c-myc and (His)6 tags) VHH: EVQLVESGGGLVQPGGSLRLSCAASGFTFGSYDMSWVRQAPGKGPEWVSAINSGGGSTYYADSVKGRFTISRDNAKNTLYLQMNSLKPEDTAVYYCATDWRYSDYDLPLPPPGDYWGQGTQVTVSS ?
Result: 7.3

Task: What value of IC50 (nM), XG-1 cell proliferation has been recorded for this entry: IL6R14 (VHH, also called PMP40H5; not shown: C-terminal c-myc and (His)6 tags) VHH: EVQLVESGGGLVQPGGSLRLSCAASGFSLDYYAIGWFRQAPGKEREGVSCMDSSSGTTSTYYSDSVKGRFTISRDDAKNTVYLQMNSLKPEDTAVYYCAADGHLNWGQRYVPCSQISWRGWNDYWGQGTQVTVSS
Result: 0.6

Task: Which IC50 (nM), XG-1 cell proliferation value is on record for IL6R06 (VHH, also called PMP32E2; not shown: C-terminal c-myc and (His)6 tags) VHH: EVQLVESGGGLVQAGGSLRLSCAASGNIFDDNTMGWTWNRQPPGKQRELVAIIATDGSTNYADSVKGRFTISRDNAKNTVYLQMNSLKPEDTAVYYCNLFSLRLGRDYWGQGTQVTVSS ?
Result: 42.1

Task: IC50 (nM), XG-1 cell proliferation for Reference Fab (Fab, V domains shown, Built from RVLa and RVHf of EP 0628639; expressed in E. coli periplasm) VH: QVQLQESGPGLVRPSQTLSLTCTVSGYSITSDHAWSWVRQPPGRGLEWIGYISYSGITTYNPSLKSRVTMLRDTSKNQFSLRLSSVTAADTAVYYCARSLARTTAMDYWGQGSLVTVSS VL: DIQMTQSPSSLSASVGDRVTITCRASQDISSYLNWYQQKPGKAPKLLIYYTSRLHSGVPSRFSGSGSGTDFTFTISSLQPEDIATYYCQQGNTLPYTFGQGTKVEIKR ?
Result: 6

Task: Look at this binder and give its reported IC50 (nM), XG-1 cell proliferation. IL6R07 (VHH, also called PMP33A3; not shown: C-terminal c-myc and (His)6 tags) VHH: EVQLVESGGGLVQPGGSLRLSCAASGFTLDYGAIGWFRQAPGKEREGVSCISSSTGSTYYADSVKGRFTISRDNGKNTVYLQMNSLKPEDTAVYYCAADKMWSPCLVAANEEALFEYDYWGQGTQVTVSS
Result: 50.5

Task: Sample IL6R13 (VHH, also called PMP35H4; not shown: C-terminal c-myc and (His)6 tags) VHH: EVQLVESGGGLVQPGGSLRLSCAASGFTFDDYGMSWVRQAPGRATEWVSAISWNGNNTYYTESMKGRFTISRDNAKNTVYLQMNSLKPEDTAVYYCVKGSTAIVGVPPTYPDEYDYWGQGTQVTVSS — what was its IC50 (nM), XG-1 cell proliferation?
Result: 1.4

Task: For the binder shown here, IL6R04 (VHH, also called PMP32C9; not shown: C-terminal c-myc and (His)6 tags) VHH: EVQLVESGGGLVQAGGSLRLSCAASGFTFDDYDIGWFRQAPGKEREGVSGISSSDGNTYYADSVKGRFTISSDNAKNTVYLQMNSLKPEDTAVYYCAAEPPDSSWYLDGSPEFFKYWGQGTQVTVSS , give the reported IC50 (nM), XG-1 cell proliferation.
Result: 0.1

Taken from patent US20120077731A1.
